Origin of the recorded values: patent US20170253607A1

testTarget: HIV-1 PR (Human immunodeficiency virus type 1 group M subtype B)
measurementProtocol: HIV-protease inhibitory activity assay (FRET peptide substrate)
conditionNotes: Test Example 1
pIC50: −log10 of the molar value.

compound	pIC50
COc1ccc(S(=O)(=O)N(CC(C)C)CC(O)C(Cc2ccc(NCc3cc(C)ccc3C(=O)Nc3sc4c(c3C(=O)O)CC(C)(C)CC4)cc2)NC(=O)OC2COC3(C)OCCC23)cc1 (stereo not shown) [Compound I-717]	8.56
COc1ccc(S(=O)(=O)N(CC(C)C)CC(O)C(Cc2ccc(N(C)CC3=C(c4sc5c(c4C(=O)O)CC(C)(C)CC5)CCC(F)(F)C3)cc2)NC(=O)OC2COC3(C)OCCC23)cc1 (stereo not shown) [Compound I-706]	8.18
COc1ccc(S(=O)(=O)N(CC(C)C)CC(O)C(Cc2ccc(NCc3ccncc3-c3sc4c(c3C(=O)O)CC(C)(C)CC4)cc2)NC(=O)OC2COC3(C)OCCC23)cc1 (stereo not shown) [Compound I-273]	8.65
COc1ccc(S(=O)(=O)N(CC(C)C)CC(O)C(Cc2ccc(OC3CC4CCC(C3)N4c3ccc(C#N)cc3-c3sc4c(c3C(=O)O)CC(C)(C)CC4)cc2)NC(=O)OC2COC3(C)OCCC23)cc1 (stereo not shown) [Compound I-324]	7.71
COc1ccc(S(=O)(=O)N(CC(C)C)CC(O)C(Cc2ccc(OCc3cc(C#N)ccc3-c3sc4c(c3C(=O)O)CC(C)(C)CC4)cc2)NC(=O)OC2COC3(C)OCCC23)cc1 (stereo not shown) [Compound I-79]	8.76
COc1ccc(S(=O)(=O)N(CC(C)C)CC(O)C(Cc2ccc(N(C)CC3=C(c4sc5c(c4C(=O)O)CC(C)(C)CC5)CCCC3)cc2)NC(=O)OC2COC3(C)OCCC23)cc1 (stereo not shown) [Compound I-236]	8.54
COc1ccc(S(=O)(=O)N(CC(C)C)CC(O)C(Cc2ccc(N3CCc4ccc(-c5sc6c(c5C(=O)O)CC(C)(C)CC6)cc4C3)cc2)NC(=O)OC2COC3(C)OCCC23)cc1 (stereo not shown) [Compound I-215]	8.70
COc1ccc(S(=O)(=O)N(CC(C)C)CC(O)C(Cc2ccc(NCc3ccccc3NC(=O)c3sc4c(c3C(=O)O)CC(C)(C)CC4)cc2)NC(=O)OC2COC3(C)OCCC23)cc1 (stereo not shown) [Compound I-574]	8.53
COc1ccc(S(=O)(=O)N(CC(C)C)CC(O)C(Cc2ccc(N(C)Cc3ccc(N4CCCC4=O)cc3-c3sc4c(c3C(=O)O)CC(C)(C)CC4)cc2)NC(=O)OC2COC3(C)OCCC23)cc1 (stereo not shown) [Compound I-744]	8.67
COc1ccc(S(=O)(=O)N(CC(C)C)CC(O)C(Cc2ccc(NCc3cccc(C)c3C(=O)Nc3sc4c(c3C(=O)O)CC(C)(C)CC4)cc2)NC(=O)OC2COC3(C)OCCC23)cc1 (stereo not shown) [Compound I-718]	8.40
COc1ccc(S(=O)(=O)N(CC(C)C)CC(O)C(Cc2ccc(N(C)Cc3cccc(-c4sc5c(c4C(=O)O)CC(C)(C)CC5)c3C)cc2)NC(=O)OC2COC3(C)OCCC23)cc1 (stereo not shown) [Compound I-510]	7.97
COc1ccc(S(=O)(=O)N(CC(C)C)CC(O)C(Cc2ccc(N(C)CC3=C(c4sc5c(c4C(=O)O)CC(C)(C)CC5)CCCCC3)cc2)NC(=O)OC2COC3(C)OCCC23)cc1 (stereo not shown) [Compound I-525]	8.24
COc1ccc(S(=O)(=O)N(CC(C)C)CC(O)C(Cc2ccc(NCc3ncccc3-c3ccc(-c4sc5c(c4C(=O)O)CC(C)(C)CC5)cc3)cc2)NC(=O)OC2COC3(C)OCCC23)cc1 (stereo not shown) [Compound I-415]	8.59
COc1ccc(S(=O)(=O)N(CC(C)C)CC(O)C(Cc2ccc(NCC3CCCCC3C(=O)Nc3sc4c(c3C(=O)O)CC(C)(C)CC4)cc2)NC(=O)OC2COC3(C)OCCC23)cc1 (stereo not shown) [Compound I-614]	8.54
COc1ccc(S(=O)(=O)N(CC(C)C)CC(O)C(Cc2ccc(OCC3CCCN3c3ccccc3-c3sc4c(c3C(=O)O)CC(C)(C)CC4)cc2)NC(=O)OC2COC3(C)OCCC23)cc1 (stereo not shown) [Compound I-95]	8.68
COc1ccc(S(=O)(=O)N(CC(C)C)CC(O)C(Cc2ccc(N3C(=O)c4cccc(-c5sc6c(c5C(=O)O)CC(C)(C)CC6)c4C3=O)cc2)NC(=O)OC2COC3(C)OCCC23)cc1 (stereo not shown) [Compound I-620]	8.65
COc1ccc(S(=O)(=O)N(CC(C)C)CC(O)C(Cc2ccc(C(=O)N(C)Cc3ccccc3-c3sc4c(c3C(=O)O)CC(C)(C)CC4)cc2)NC(=O)OC2COC3(C)OCCC23)cc1 (stereo not shown) [Compound I-219]	8.69
COc1ccc(S(=O)(=O)N(CC(C)C)CC(O)C(Cc2ccc(OCc3ccccc3-c3ccc4c(c3C(=O)O)CC(C)(C)CC4)cc2)NC(=O)OC2COC3(C)OCCC23)cc1 (stereo not shown) [Compound I-40]	8.72
COc1ccc(S(=O)(=O)N(CC(C)C)CC(O)C(Cc2ccc(N(C)CCOc3ccccc3-c3sc4c(c3C(=O)O)CC(C)(C)CC4)cc2)NC(=O)OC2COC3OCCC23)cc1 (stereo not shown) [Compound I-864]	8.65
